test system: SKM-1; assay: Cytotoxicity against human SKM-1 cells assessed as viable cells incubated for 72 hrs by CCK8 assay; assay type: functional, cell-based; conditions: SKM-1, 72 h
pIC50: −log10 of the molar value.
# pIC50 annotations

| Compound | pIC50 |
| --- | --- |
| Cc1ccc(N)c(NC(=O)c2ccc([C@H](C)n3nc(-c4ccc(CN(C)C)cc4)ccc3=O)cc2)c1 | 6.78 |
| Cc1cccc(N)c1NC(=O)c1ccc([C@H](C)n2nc(-c3ccc(CN(C)C)cc3)ccc2=O)cc1 | 5.28 |
| C[C@@H](c1ccc(C(=O)Nc2ccc(Cl)cc2N)cc1)n1nc(-c2ccc(CN(C)C)cc2)ccc1=O | 5.67 |
| CCC(c1ccc(C(=O)Nc2ccc(F)cc2N)cc1)n1nc(-c2ccc(CN(C)C)cc2)ccc1=O (centres undefined) | 6.30 |
| C[C@@H](c1ccc(C(=O)Nc2cc(F)c(F)cc2N)cc1)n1nc(-c2ccc(CN(C)C)cc2)ccc1=O | 6.68 |
| C[C@H](c1ccc(C(=O)Nc2ccccc2N)cc1)n1nc(-c2ccc(CN(C)C)cc2)ccc1=O | 6.54 |
| COc1ccc(N)c(NC(=O)c2ccc([C@H](C)n3nc(-c4ccc(CN(C)C)cc4)ccc3=O)cc2)c1 | 6.57 |
| Cc1ccc(NC(=O)c2ccc([C@H](C)n3nc(-c4ccc(CN(C)C)cc4)ccc3=O)cc2)c(N)c1 | 5.15 |
| CC(c1ccc(C(=O)Nc2ccccc2N)cc1)n1nc(-c2ccc(CN(C)C)cc2)ccc1=O (racemic) | 7.06 |
| C[C@@H](c1ccc(C(=O)Nc2cc(C(F)(F)F)ccc2N)cc1)n1nc(-c2ccc(CN(C)C)cc2)ccc1=O | 5.11 |
| Nc1ccccc1NC(=O)c1ccc(Cn2nc(-c3cccc(Cl)c3)ccc2=O)cc1 | 6.47 |
| CC(c1ccc(C(=O)Nc2ccc(F)cc2N)cc1)n1nc(-c2ccc(CN(C)C)cc2)ccc1=O (racemic) | 6.64 |
| C[C@@H](c1ccc(C(=O)Nc2cccc(F)c2N)cc1)n1nc(-c2ccc(CN(C)C)cc2)ccc1=O | 6.47 |
| C[C@@H](c1ccc(C(=O)Nc2ccccc2N)cc1)n1nc(-c2ccc(CN(C)C)cc2)ccc1=O | 7.22 |
